log10 Ki, cloned human H3 receptor (Homo sapiens, UniProt Q9Y5N1), per-entry values.
Measurement Type: log10 Ki (log10 of the value in nM)

| Molecular String | System | log10 Ki |
| --- | --- | --- |
| CNCc1cc(CN2CCN(C(C)C)C(=O)C2)ccc1Oc1ccc(Cl)c(Cl)c1 | cloned human H3 receptor (Homo sapiens, UniProt Q9Y5N1) | 3.40 |
| CNCc1cc(N2CCN(C3CC3)CCC2=O)ccc1Oc1ccc(SC)cc1 | cloned human H3 receptor (Homo sapiens, UniProt Q9Y5N1) | 1.57 |
| CNCc1cc(C(=O)N2CCN(C3CC3)CC2)ccc1Oc1ccc(C)nc1 | cloned human H3 receptor (Homo sapiens, UniProt Q9Y5N1) | 1.77 |
| CNCc1cc(C(=O)NCCN(C)C)ccc1Oc1cccc(Cl)c1 | cloned human H3 receptor (Homo sapiens, UniProt Q9Y5N1) | 2.00 |
| CNCc1cc(C(=O)NCCN2CCCC2)ccc1Oc1cccc(Cl)c1 | cloned human H3 receptor (Homo sapiens, UniProt Q9Y5N1) | 0.78 |
| CNCc1cc(C(=O)NCCCN(C)C)ccc1Oc1cccc(Cl)c1 | cloned human H3 receptor (Homo sapiens, UniProt Q9Y5N1) | 1.68 |
| CNCc1cc(N2CCN(C(C)C)CCC2=O)ccc1Oc1ccc(Cl)c(Cl)c1 | cloned human H3 receptor (Homo sapiens, UniProt Q9Y5N1) | 0.89 |

###

Biological target: UniProt P31652
pKi: −log10 of the molar value.
Label criterion met when pKi is at or above 8; otherwise label criterion not met.

| Molecule | System | Group |
| --- | --- | --- |
| O=C(c1ccc(CNC2CC2)c(Oc2cccnc2)c1)N1CCN(C2CC2)CC1 [Example 31] | UniProt P31652 | criterion not met |
| CNCc1cc(N2CCN(C3CC3)CCC2=O)ccc1Oc1ccc(SC)cc1 [Example 57] | UniProt P31652 | criterion met |
| CNCc1cc(N2CCN(C)CC2)ccc1Oc1ccc(SC)cc1 [Example 41] | UniProt P31652 | criterion met |
| CNCc1ccc(C(=O)N2CCN(C(C)C)CC2)cc1Oc1ccc(Cl)cc1 [Example 36] | UniProt P31652 | criterion not met |
| CC(C)N1CCN(C(=O)c2ccc(CNC3CC3)c(Oc3cccnc3)c2)CC1 [Example 30] | UniProt P31652 | criterion not met |
| CNCc1cc(N2CCN(C(C)C)CCC2=O)ccc1Oc1ccc(SC)cc1 [Example 54] | UniProt P31652 | criterion met |

###

The compounds below have reported pKi for Rat SERT (Rattus norvegicus, UniProt P31652).
pKi: −log10 of the molar value.
Measurement Type: pKi

| Molecular String | System | Measurement Type | Value Observed |
| --- | --- | --- | --- |
| CNCc1cc(CN2CCC(=O)N(C(C)C)CC2)ccc1Oc1ccc(Cl)c(Cl)c1 | Rat SERT (Rattus norvegicus, UniProt P31652) | pKi | 8.15 |
| CCNCc1cc(CN2CCN(C(C)C)CC2)ccc1Oc1ccc(SC)cc1 | Rat SERT (Rattus norvegicus, UniProt P31652) | pKi | 8.22 |
| CNCc1cc(N2CCN(C(C)C)CCC2=O)ccc1Oc1ccc(Cl)c(Cl)c1 | Rat SERT (Rattus norvegicus, UniProt P31652) | pKi | 7.92 |
